// values below are reported z-score
# assay.explanation: fission yeast growth modulation, primary screen, strain 972, OD600, 24 h, no modulator (AID 1090);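 also: basal condition with compound alone and no growth modifier present; test concentration not given here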
# details: S. pombe 972 growth, higher = more signal, called active from +8 up or from −8 down
Calls of active or inactive are those of the source.
readout: z-score

| compound | readout | experimental.value |
| --- | --- | --- |
| O=c1n(-c2ccccc2)c(=O)n2n1CC(COc1ccccc1)=C1[C@@H](CCc3ccccc3)OB(O)C[C@@H]12 | z-score | -3.03 (inactive) |
| C[N+](C)(C)CCCC[C@@H]1NC(=O)[C@@H]2C[C@H](C(=O)NCCCCCNC(=O)CS)[C@H](c3ccc(O)cc3)N2C1=O | z-score | -1.73 (inactive) |
| CO[C@H]1O[C@H](CO)[C@@H](OC(=O)Nc2ccccc2)[C@H](OC(=O)Nc2ccc3c(c2)OCO3)[C@H]1OC(=O)Nc1ccc2c(c1)OCO2 | z-score | 0.494 (inactive) |
| C=CCN1C(=O)[C@@]2(O[C@@H](CCO)[C@H]([Si](C)(C)c3ccc(OC)cc3)[C@H]2C)c2cc(N3C(=O)c4cccc5cccc3c45)ccc21 | z-score | 1.89 (inactive) |
| CC(C)CCC[C@@H](C)[C@H]1CC[C@@]2(C)C3=C(CC[C@]12C)[C@@]1(C)CC[C@H](OC(=O)CCl)C(C)(C)C1CC3 (stereo partly specified) | z-score | -0.178 (inactive) |
| COc1ccc([Si](C)(C)[C@@H]2[C@@H](CCn3cc(CCO)nn3)O[C@]3(C(=O)N(Cc4ccc(N5C(=O)c6cccc7cccc5c67)cc4)c4ccccc43)[C@H]2C)cc1 | z-score | 0.858 (inactive) |

* * *

# assay.explanation: modulators of HCV replicon luciferase signal, primary screen, HCV replication inhibitor project, Huh7 cells, luciferase reporter (AID 1109);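 also: huh7 hepatoma cells harbouring a luciferase neomycin HCV replicon reporter; luciferase luminescence as measure of HCV replicon replication; test concentration not given here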
# details: 48 h, higher = more signal
Quick rule: z-score of at least -2 means yes (1), below that means no (0).

| compound | label |
| --- | --- |
| C=C(/C(=C/C[C@H](OC(C)=O)c1cccc(OCCO)c1)c1cc(C(=O)OC)ccc1OC)C(C)C | yes (1) |
| COc1ccc([Si](C)(C)[C@H]2[C@H](CC(=O)N(CCO)Cc3ccccc3)O[C@@]3(C(=O)N(Cc4cccc(N5C(=O)COc6ccccc65)c4)c4ccccc43)[C@@H]2C)cc1 | no (0) |
| CCCCCN1CC=CC23O[C@@H]4/C=C\CCC(C)OC(=O)C4[C@H]2C(=O)N(CCO)[C@@H]3C1=O (some centres not stated) | yes (1) |
| COCCCNC(=O)[C@@]1(Cc2ccccc2)N=C(c2ccc(OCCCO)cc2)O[C@H]1c1ccccc1N=[N+]=[N-] | no (0) |
| CC(C)CCC[C@@H](C)[C@H]1CC[C@@]2(C)C3=C(CC[C@]12C)[C@@]1(C)CC[C@H](OC(=O)CCl)C(C)(C)C1CC3 (some centres not stated) | yes (1) |
| CO[C@H]1O[C@H](CO)[C@@H](OC(=O)Nc2ccccc2)[C@H](OC(=O)Nc2ccc3c(c2)OCO3)[C@H]1OC(=O)Nc1ccc2c(c1)OCO2 | yes (1) |

* * *

// values below are reported composite z-score
# System: wheat germ agglutinin (Triticum aestivum), Alexa647-labelled
# assay.explanation: wheat germ agglutinin binders on compound microarrays, profiling panel, artefact control for SMM control-protein annotation, biochemical, small-molecule microarray, 635/667 nm fluorescence (AID 1140);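 also: score merges 667 nm feature emission with signal to noise over triplicate slides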
# details: WGA-A647 binding, 635 nm fluorescence, higher = more signal
readout: composite z-score

| compound | readout | experimental.value |
| --- | --- | --- |
| COc1ccc(/C=C/C(=O)c2cccc(OCC(=O)OC(C)(C)C)c2)cc1 | composite z-score | 0.248 |
| CCOC(=O)C[C@H]1[C@H](OC(=O)c2ccc(-c3ccccc3)cc2)[C@@H](NC(=O)c2ccccc2)c2cc(OCCCO)ccc2N1C(=O)c1ccccc1 | composite z-score | 0.646 |
| C=CCN1C(=O)[C@@]2(O[C@@H](CCO)[C@H]([Si](C)(C)c3ccc(OC)cc3)[C@H]2C)c2cc(N3C(=O)c4cccc5cccc3c45)ccc21 | composite z-score | 0.525 |
| C=CCNC(=O)[C@H]1[C@@H]2C(=O)O[C@@H](c3ccccc3)[C@@H](c3ccccc3)N2[C@@H](c2ccccc2OCCO)[C@]12C(=O)N(C(=O)OCCOC)c1ccc(C#CCCO)cc12 | composite z-score | 0.958 |
| CC(C)C(=C=CC[C@@H](O)c1ccc(CO)o1)CCO | composite z-score | 0.308 |
| CC(C)C[C@@H]1NC(=O)[C@H]2C[C@@H](C(=O)NCCCC[N+](C)(C)C)[C@@H](c3cccc(OCCO)c3)N2C1=O | composite z-score | -0.102 |
| O=C(NCc1ccccc1)[C@@H]1c2ccccc2C(=O)N(Cc2ccccc2Cl)[C@H]1c1ccc(CO)cc1 | composite z-score | 0.704 |
| CO[C@H]1O[C@H](CO)[C@@H](OC(=O)CCc2ccccc2)[C@@H]2OC(=O)[C@H](Cc3ccccc3)C/C=C/C[C@@H](Cc3ccccc3)C(=O)O[C@@H]12 | composite z-score | -1.32 |
| COc1ccc([Si](C)(C)[C@@H]2[C@@H](CCn3cc([C@H](O)c4ccccc4)nn3)O[C@]3(C(=O)N(C)c4c(Br)cc(C)cc43)[C@H]2C)cc1 | composite z-score | 0.397 |
| CC(C)(C)OC(=O)CC[C@@]12N=C(c3ccc(OCCCO)cc3)O[C@@H]1c1ccccc1CN(Cc1ccccc1)C2=O | composite z-score | 0.438 |
| O=C(N1CCCCC1)[C@@]1(Cc2ccccc2)N=C(c2ccc(OCCCO)cc2)O[C@H]1c1ccccc1 | composite z-score | 1.07 |
| CC(C)C(CO)N1C(=O)[C@@H]2[C@H]3C(=O)OCC=C[C@H]3OC23C=CCN(Cc2ccccc2)C(=O)[C@@H]13 (stereo not given in full) | composite z-score | -1.06 |
| CC(C)(C)OC(=O)CC[C@]1(C(=O)NCc2ccccc2)COC(c2ccc(OCCCO)cc2)=N1 | composite z-score | 1.33 |
| O=C(NO)[C@]1(Cc2ccccc2)N=C(c2ccc(OCCCO)cc2)O[C@@H]1c1ccccc1 | composite z-score | 0.162 |
| COc1ccc(C#Cc2ccc3c(c2)[C@]2(C(=O)N3)[C@H](c3ccc(O)cc3)N3[C@H](c4ccccc4)[C@H](c4ccccc4)OC(=O)[C@H]3[C@@H]2C(=O)N2CCN(c3ncccn3)CC2)cc1 | composite z-score | 0.929 |

* * *

# subject.of.test: Torsin-1A (Homo sapiens) (UniProt O14656)
# Sequence (O14656 whole entry, looked up): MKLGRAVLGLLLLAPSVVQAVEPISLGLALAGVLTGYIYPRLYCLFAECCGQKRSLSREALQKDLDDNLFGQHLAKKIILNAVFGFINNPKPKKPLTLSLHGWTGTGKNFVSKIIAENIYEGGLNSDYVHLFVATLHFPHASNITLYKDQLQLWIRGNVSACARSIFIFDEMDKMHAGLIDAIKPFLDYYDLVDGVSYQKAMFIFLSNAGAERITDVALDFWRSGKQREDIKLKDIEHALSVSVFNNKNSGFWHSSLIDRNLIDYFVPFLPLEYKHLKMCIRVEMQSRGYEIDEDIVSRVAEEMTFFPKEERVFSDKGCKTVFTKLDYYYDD
# assay.explanation: torsin A binders from cell lysate, primary screen, small-molecule microarray, wild-type, 635/667 nm (AID 1149)
# details: COS7 hTOR1A-WT lysate, 635 nm fluorescence, higher = more signal
readout: composite z-score

| compound | readout | experimental.value |
| --- | --- | --- |
| C=C(/C(=C/C[C@H](OC(=O)c1ccncc1)c1cccc(OCCO)c1)c1cc(C(=O)OC)ccc1OC)C(C)C | composite z-score | 0.607 |
| CC(=O)NCCCC[C@@H]1NC(=O)[C@@H]2C[C@H](C(=O)O)[C@H](c3cccc(OCCO)c3)N2C1=O | composite z-score | 0.911 |
| CCCCCN1CC=CC23O[C@@H]4/C=C\CCC(C)OC(=O)C4[C@H]2C(=O)N(CCCO)[C@@H]3C1=O (some centres undefined) | composite z-score | 0.26 |
| CCOC(=O)C[C@H]1[C@H](OC(=O)c2cc3ccccc3oc2=O)[C@@H](NC(=O)c2ccccc2)c2cc(OCCCO)ccc2N1C(=O)Cc1ccc(OC)cc1 | composite z-score | 0.151 |
| C=CC[C@]1(C(=O)N2CCCCC2)COC(c2ccc(OCCCO)cc2)=N1 | composite z-score | -0.273 |
| COC(=O)[C@@]1(CCC(=O)OC(C)(C)C)COC(c2ccc(OCCCO)cc2)=N1 | composite z-score | -1.3 |
| CC(C)C[C@@H]1NC(=O)[C@@]23C(=O)N[C@@H](Cc4ccccc4)C2[C@H](C)[C@@]2(C)O[C@H]2C3/C=C/CC/C=C/CNC(=O)[C@@H](C)NC1=O (some centres undefined) | composite z-score | 0.418 |
| COCCOC(=O)N1C(=O)[C@@]2(c3cc(C#CCNC(N)=O)ccc31)[C@H](c1ccccc1OCCO)N1[C@H](c3ccccc3)[C@H](c3ccccc3)OC(=O)[C@H]1[C@@H]2C(=O)Nc1nc2ccccc2s1 | composite z-score | 0.196 |
| O=C(NCC(F)(F)F)[C@@H]1c2ccccc2C(=O)N(C2Cc3ccccc3C2)[C@H]1c1ccc(CO)cc1 | composite z-score | -0.0578 |
| NC(=O)NCC#Cc1ccc2c(c1)[C@]1(C(=O)N2)[C@H](c2ccc(OCCO)cc2)N2[C@H](c3ccccc3)[C@H](c3ccccc3)OC(=O)[C@H]2[C@@H]1C(=O)Nc1nc2ccccc2s1 | composite z-score | -0.033 |
| CC(C)C(CO)N1C(=O)[C@@H]2C3C(=O)OCCC/C=C\[C@H]3OC23C=CCN(C(C)C)C(=O)[C@@H]13 (some centres undefined) | composite z-score | 0.286 |
| COc1ccc([Si](C)(C)[C@H]2[C@H](CC(=O)N3Cc4ccccc4C[C@H]3CO)O[C@@]3(C(=O)N(Cc4cccc(N5C(=O)COc6ccccc65)c4)c4ccccc43)[C@@H]2C)cc1 | composite z-score | 0.562 |
| Cc1ccc(S[C@]2(C(=O)NCCN3CCOCC3)CC(=O)N(Cc3cc(C(F)(F)F)cc(C(F)(F)F)c3)[C@@H]2c2ccc(CO)cc2)cc1 | composite z-score | -0.847 |
| COc1ccc([Si](C)(C)[C@H]2[C@H](CC(=O)N(CCO)Cc3ccccc3)O[C@@]3(C(=O)N(Cc4ccc(N5CCOC5=O)cc4)c4ccccc43)[C@@H]2C)cc1 | composite z-score | 0.442 |

Taken from PubChem BioAssay.
